# Target entity: T1, FGFR2IIIb-his (ECD) (human)
# T1 chain: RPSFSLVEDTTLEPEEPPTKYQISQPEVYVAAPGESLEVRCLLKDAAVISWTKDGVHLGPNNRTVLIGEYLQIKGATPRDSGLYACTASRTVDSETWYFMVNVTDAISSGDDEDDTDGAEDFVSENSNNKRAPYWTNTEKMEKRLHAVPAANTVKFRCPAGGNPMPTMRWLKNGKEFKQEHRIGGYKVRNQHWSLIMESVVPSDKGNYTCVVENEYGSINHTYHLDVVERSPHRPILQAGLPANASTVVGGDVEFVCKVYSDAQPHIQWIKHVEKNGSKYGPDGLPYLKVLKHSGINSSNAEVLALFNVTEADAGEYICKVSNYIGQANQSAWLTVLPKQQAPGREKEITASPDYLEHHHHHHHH
# Assay summary: ELISA
Entries annotated with measured EC50
Measurement label: EC50 (µg/mL)

Binder	Measurement label	Recorded result
III-10 (antibody, V domains shown) VH: QVQLVQSGAEVKKPGSSVKVSCKASGYTFANYNMHWVRQAPGQGLEWIGAIYPGNGDTSYNQKFKGKATLTADKSTSTAYMELSSLRSEDTAVYYCARGDFGYWGQGTLVTVSS VL: DIVMTQSPSSLSASVGDRVTITCKASQDVNIDVAWYQQKPGKAPKLLIYSASYRYTGVPSRFSGSGSGTDFTFTISSLQPEDFATYYCQQHYSTPYTFGQGTKLEIK	EC50	0.052
III-15 (antibody, V domains shown) VH: QVQLVQSGAEVKKPGSSVKVSCKASGYTFAIYNMHWVRQAPGQGLEWIGAIYPDNGDTFYNQKFKGKATLTADKSTSTAYMELSSLRSEDTAVYYCARGDFGYWGQGTLVTVSS VL: DIVMTQSPSSLSASVGDRVTITCKASQDVNIDVAWYQQKPGKAPKLLIYLASYRYTGVPSRFSGSGSGTDFTFTISSLQPEDFATYYCQQTYSTPYTFGQGTKLEIK	EC50	0.042
III-11 (antibody, V domains shown) VH: QVQLVQSGAEVKKPGSSVKVSCKASGYTFAIYNMHWVRQAPGQGLEWIGAIYPDNGDTFYNQKFKGKATLTADKSTSTAYMELSSLRSEDTAVYYCARGDFGYWGQGTLVTVSS VL: DIVMTQSPSSLSASVGDRVTITCKASQDVNIDPAWYQQKPGKAPKLLIYLASYRYTGVPSRFSGSGSGTDFTFTISSLQPEDFATYYCQQHYSTPYTFGQGTKLEIK	EC50	0.051
III-14 (antibody, V domains shown) VH: QVQLVQSGAEVKKPGSSVKVSCKASGYTFAIYNMHWVRQAPGQGLEWIGAIYPGNGDTFYNQKFKGKATLTADKSTSTAYMELSSLRSEDTAVYYCARGDFGYWGQGTLVTVSS VL: DIVMTQSPSSLSASVGDRVTITCKASQDVNIDVAWYQQKPGKAPKLLIYLASYRYTGVPSRFSGSGSGTDFTFTISSLQPEDFATYYCQQTYSTPYTFGQGTKLEIK	EC50	0.058
III-0 (antibody, V domains shown) VH: QVQLQQPGAELVRPGASVKMSCKASGYTFANYNMHWVKQTPRQGLEWIGAIYPGNGDTSYNQKFKGKATLTADKSSSTAYMQLSSLTSEDSAVYYCARGDFGYWGQGTTLTVSS VL: DIVMTQSHKFMSTSVGDRVTITCKASQDVNIDVAWYQQKPGQSPKLLIYSASYRYTGVPDRFTGSGSGTDFTFTISSVQAEDLAVYYCQQHYSTPYTFGGGTKLEIK	EC50	0.048
